Values were extracted from patent US7071293B1.

Listed here: items and their measured EC50 P. aeruginosa PAO1.
tested on: P. aeruginosa PAO1; details: ionic strength 175 mM; avg ± sem
Ends that are not written are not given here.
measurement-name: EC50 P. aeruginosa PAO1 (µg/mL)

1. LRKFRNKIKEKLKKIGQKI [CAP18-19] | 3.06
2. RKRLRKFRNKIKEKLKKIGQKI [CAP18-22] | 0.88
3. KNLRRIIRKIIHIIKKYG [SMAP29X-18D] | 0.58
4. LRRIIRKIIHIIKK-NH2 [SMAP29X-14A] | 1.59
5. KRLRKFRNKIKEKLKKIG [CAP18-18] | 1.59
6. NLRRIIRKIIHIIKKY-NH2 [SMAP29X-16B] | 3.78

###

tested on: E. coli ML-35p; settings: high salt underlay (10 mM sodium phosphate buffer +100 mM NaCl, pH 7.4); Table 13
Ends that are not written are not given here.
Mark each entry criterion met if its MIC E. coli [NaCl] High sits below 0.7 µg/mL, and criterion not met for all others.

1) KIKEKLKKIGQKIQGLL [CAP18-17] | criterion not met
2) KIKEKLKKIGQKIQG [CAP18-15b] | criterion not met
3) LRKFRNKIKEKLKKIGQKIQG [CAP18-21b] | criterion met
4) LRRIIRKIIHIIKK-NH2 [SMAP29X-14A] | criterion not met
5) GLRKRLRKFRNKIKEKLKKIG [CAP18-21a] | criterion met
6) KRLRKFRNKIKEKLKKIG [CAP18-18] | criterion not met

###

system: E. coli ML-35p; details: high salt underlay (10 mM sodium phosphate buffer +100 mM NaCl, pH 7.4); Table 13
Ends that are not written are not given here.
measurement-name: MIC E. coli [NaCl] High (µg/mL)

1) GLRKRLRKFRNKIKEKLKKIGQKIQGLLPKLAPRTDY [CAP 18] | 0.4
2) KNLRRIIRKIIHIIKKYGPTILRIIRIIG-NH2 [SMAP29X] | 0.8
3) KNLRRIIRKIIHIIKKYG [SMAP29X-18D] | 0.5
4) LRKFRNKIKEKLKKIGQKI [CAP18-19] | 18.2
5) RKRLRKFRNKIKEKLKKIGQKI [CAP18-22] | 1.7
